Recorded below: pIC50, system VEGFR-2 (Homo sapiens, UniProt P35968).
The scale used: pIC50 is minus the common logarithm of the concentration in molar units.

Request: So what does the record say about pIC50 for Clc1ccc(-c2noc(Cn3cc(-c4ccccc4)nn3)n2)c(Cl)c1 [Compound 7j] ?
Result: 8.33

Request: So what does the record say about pIC50 for COc1cc(-c2noc(Cn3cc(-c4ccccc4)nn3)n2)cc(OC)c1OC [Compound 7l] ?
Result: 8.33

Request: So what does the record say about pIC50 for Brc1cccc(-c2noc(Cn3cc(-c4ccccc4)nn3)n2)c1 [Compound 7i] ?
Result: 8.26

Request: So what does the record say about pIC50 for Clc1cccc(-c2noc(Cn3cc(-c4ccccc4)nn3)n2)c1 [Compound 7h] ?
Result: 8.16

Request: So what does the record say about pIC50 for COc1ccc(-c2noc(Cn3cc(-c4ccccc4)nn3)n2)cc1OC [Compound 7k] ?
Result: 8.42

----------
system: pancreatic cancer (Panc-1) cell line; test: cells; conditions: Homo sapiens, PANC-1, read-out: Antiproliferative activity IC50 ± SEM, Panc-1
Measurement kind: pIC50
The scale used: pIC50 is minus the common logarithm of the concentration in molar units.

Request: So what does the record say about pIC50 for `COc1cc(-c2noc(Cn3cc(-c4ccccc4)nn3)n2)cc(OC)c1OC` ?
Result: 7.55

Request: So what does the record say about pIC50 for `COc1ccc(-c2noc(Cn3cc(-c4ccccc4)nn3)n2)cc1OC` ?
Result: 7.49

Request: So what does the record say about pIC50 for `Fc1ccc(-c2noc(Cn3cc(-c4ccccc4)nn3)n2)cc1` ?
Result: 6.98

Request: So what does the record say about pIC50 for `Brc1cccc(-c2noc(Cn3cc(-c4ccccc4)nn3)n2)c1` ?
Result: 7.43

Request: So what does the record say about pIC50 for `Cc1ccc(-c2noc(Cn3cc(-c4ccccc4)nn3)n2)cc1` ?
Result: 7.00

Request: So what does the record say about pIC50 for `c1ccc(-c2cn(Cc3nc(-c4ccc5ccccc5c4)no3)nn2)cc1` ?
Result: 7.15

Request: So what does the record say about pIC50 for `FC(F)(F)c1ccc(-c2noc(Cn3cc(-c4ccccc4)nn3)n2)cc1` ?
Result: 7.17

----------
system: four cancer cell lines (A-549, MCF-7, Panc-1, HT-29); assay: Antiproliferative assay, average over the four cancer cell lines; details: GI50 ratio vs Erlotinib
Measurement kind: fold less potent than the reference Erlotinib (GI50)
Give your result as the value with the unit written after it.

Request: So what does the record say about fold less potent than the reference Erlotinib (GI50) for `c1ccc(-c2cn(Cc3nc(-c4ccc5ccccc5c4)no3)nn2)cc1` ?
Result: 2.4 fold

Request: So what does the record say about fold less potent than the reference Erlotinib (GI50) for `Cc1ccc(-c2noc(Cn3cc(-c4ccccc4)nn3)n2)cc1` ?
Result: 3 fold

Request: So what does the record say about fold less potent than the reference Erlotinib (GI50) for `c1ccc(-c2cn(Cc3nc(-c4cccc5ccccc45)no3)nn2)cc1` ?
Result: 1.4 fold

Request: So what does the record say about fold less potent than the reference Erlotinib (GI50) for `c1ccc(-c2cn(Cc3nc(-c4ccccc4)no3)nn2)cc1` ?
Result: 3 fold

----------
test: Cell viability assay; type: cell-based; details: human, MCF-10A normal mammary gland epithelial cells
Task for the reader: assign each of the following compounds its reported viability at 4 days, 50 µM.
The reply should be a number in %, with the unit left off.

Request: So what does the record say about viability at 4 days, 50 µM for `Fc1ccc(-c2noc(Cn3cc(-c4ccccc4)nn3)n2)cc1` ?
Result: 91

Request: So what does the record say about viability at 4 days, 50 µM for `Clc1ccc(-c2noc(Cn3cc(-c4ccccc4)nn3)n2)cc1` ?
Result: 89

Request: So what does the record say about viability at 4 days, 50 µM for `c1ccc(-c2cn(Cc3nc(-c4ccc5ccccc5c4)no3)nn2)cc1` ?
Result: 89

Request: So what does the record say about viability at 4 days, 50 µM for `COc1ccc(-c2noc(Cn3cc(-c4ccccc4)nn3)n2)cc1OC` ?
Result: 89

Request: So what does the record say about viability at 4 days, 50 µM for `Cc1ccc(-c2noc(Cn3cc(-c4ccccc4)nn3)n2)cc1` ?
Result: 91

Request: So what does the record say about viability at 4 days, 50 µM for `c1ccc(-c2cn(Cc3nc(-c4ccccc4)no3)nn2)cc1` ?
Result: 90

Request: So what does the record say about viability at 4 days, 50 µM for `Clc1cccc(-c2noc(Cn3cc(-c4ccccc4)nn3)n2)c1` ?
Result: 90

Request: So what does the record say about viability at 4 days, 50 µM for `Clc1ccc(-c2noc(Cn3cc(-c4ccccc4)nn3)n2)c(Cl)c1` ?
Result: 91

Request: So what does the record say about viability at 4 days, 50 µM for `COc1ccc(-c2noc(Cn3cc(-c4ccccc4)nn3)n2)cc1` ?
Result: 90

Request: So what does the record say about viability at 4 days, 50 µM for `c1ccc(-c2cn(Cc3nc(-c4ccc5c(c4)OCO5)no3)nn2)cc1` ?
Result: 91

Request: So what does the record say about viability at 4 days, 50 µM for `FC(F)(F)c1ccc(-c2noc(Cn3cc(-c4ccccc4)nn3)n2)cc1` ?
Result: 87

Request: So what does the record say about viability at 4 days, 50 µM for `COc1cc(-c2noc(Cn3cc(-c4ccccc4)nn3)n2)cc(OC)c1OC` ?
Result: 88

Request: So what does the record say about viability at 4 days, 50 µM for `Brc1cccc(-c2noc(Cn3cc(-c4ccccc4)nn3)n2)c1` ?
Result: 89

Request: So what does the record say about viability at 4 days, 50 µM for `Brc1ccc(-c2noc(Cn3cc(-c4ccccc4)nn3)n2)cc1` ?
Result: 88

Request: So what does the record say about viability at 4 days, 50 µM for `c1ccc(-c2cn(Cc3nc(-c4cccc5ccccc45)no3)nn2)cc1` ?
Result: 87

Origin of values: paper PMC10854447
